Target: C-C chemokine receptor type 5 (Homo sapiens)
Sequence (P51681 whole entry): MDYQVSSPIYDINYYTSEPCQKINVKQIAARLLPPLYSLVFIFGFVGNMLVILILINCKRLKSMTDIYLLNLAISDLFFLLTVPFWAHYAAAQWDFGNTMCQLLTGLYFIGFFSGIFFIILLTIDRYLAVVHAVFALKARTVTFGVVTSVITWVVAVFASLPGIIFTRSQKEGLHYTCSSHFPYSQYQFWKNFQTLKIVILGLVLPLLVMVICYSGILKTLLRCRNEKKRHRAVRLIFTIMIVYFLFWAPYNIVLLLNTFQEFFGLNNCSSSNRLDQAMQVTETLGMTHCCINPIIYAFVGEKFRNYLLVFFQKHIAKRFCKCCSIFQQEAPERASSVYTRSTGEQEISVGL
Assay: Ability to displace [125I]- labeled MIP-1alpha from CCR5 receptor expressed on CHO cell membrane
Criterion: IC50 strictly under 0.5 nM. Met: rule met. Not met: rule not met.

INSERT INTO measurements (molecule, group_label) VALUES
  ('O=C(O)[C@@H](CC1CCC1)N1C[C@H](CN2CCC(CCCc3ccc(C(F)(F)F)cc3)CC2)[C@@H](c2cccc(F)c2)C1', 'rule met'),
  ('CC(C)[C@H](C(=O)O)N1C[C@H](CN2CCC(CCSc3ccc(F)cc3)CC2)[C@@H](c2cccc(F)c2)C1', 'rule not met'),
  ('O=C(O)[C@@H](C1CCCCC1)N1C[C@H](CN2CCC(CCC(F)(F)c3ccc(F)cc3)CC2)[C@@H](c2ccccc2)C1', 'rule met'),
  ('O=C(O)[C@@H](C1CCCCC1)N1C[C@H](CN2CCC(CCS(=O)(=O)c3ccc(F)cc3)CC2)[C@@H](c2cccc(F)c2)C1', 'rule not met'),
  ('COC(=O)C(CCC1CCN(C[C@H]2CN([C@H](CC3CC3)C(=O)O)C[C@@H]2c2cccc(F)c2)CC1)c1ccc(F)cc1 (some centres undefined)', 'rule not met'),
  ('O=C(CCC1CCN(C[C@H]2CN([C@@H](C(=O)O)C3CCCCC3)C[C@@H]2c2ccccc2)CC1)c1ccc(F)cc1', 'rule not met'),
  ('N#Cc1ccc(CCCC2CCN(C[C@H]3CN([C@H](CC4CCC4)C(=O)O)C[C@@H]3c3cccc(F)c3)CC2)cc1', 'rule met'),
  ('O=C(O)[C@@H](CC1CCC1)N1CC(CN2CCC(CCC(F)(F)c3ccc(F)cc3)CC2)[C@@H](c2ccccc2)C1 (single isomer, unassigned)', 'rule met'),
  ('O=C(O)[C@@H](CC1CC1)N1C[C@H](CN2CCC(CCC(O)c3ccc(F)cc3)CC2)[C@@H](c2cccc(F)c2)C1 (some centres undefined)', 'rule met'),
  ('O=C(O)[C@@H](CC1CCC1)N1C[C@H](CN2CCC(CC[S+]([O-])c3ccc(F)cc3)CC2)[C@@H](c2cccc(F)c2)C1 (stereo in doubt; 31)', 'rule met'),
  ('CC(O)(CCC1CCN(C[C@H]2CN([C@H](CC3CC3)C(=O)O)C[C@@H]2c2cccc(F)c2)CC1)c1ccc(F)cc1 (some centres undefined)', 'rule not met'),
  ('CC(C)[C@H](C(=O)O)N1C[C@H](CN2CCC(CCS(=O)(=O)c3ccc(F)cc3)CC2)[C@@H](c2cccc(F)c2)C1', 'rule not met'),
  ('O=C(O)C(CCC1CCN(C[C@H]2CN([C@H](CC3CC3)C(=O)O)C[C@@H]2c2cccc(F)c2)CC1)c1ccc(F)cc1 (some centres undefined)', 'rule not met'),
  ('O=C(O)[C@@H](CC1CCC1)N1CC(CN2CCC(CCC(F)(F)c3ccc(F)cc3)CC2)[C@@H](c2cccc(F)c2)C1 (single isomer, unassigned)', 'rule met'),
  ('O=C(O)[C@@H](CC1CC1)N1C[C@H](CN2CCC(CCC(CO)c3ccc(F)cc3)CC2)[C@@H](c2cccc(F)c2)C1 (some centres undefined)', 'rule not met'),
  ('O=C(O)[C@@H](CC1CC1)N1C[C@H](CN2CCC(CCP(=O)(O)c3ccccc3)CC2)[C@@H](c2cccc(F)c2)C1', 'rule not met'),
  ('O=C(O)[C@@H](CC1CC1)N1CC(CN2CCC(CCC(F)(F)c3ccc(F)cc3)CC2)[C@@H](c2cccc(F)c2)C1 (single isomer, unassigned)', 'rule met'),
  ('O=C(O)[C@@H](CC1CCC1)N1C[C@H](CN2CCC(CCCc3ccc(F)cc3)CC2)[C@@H](c2cccc(F)c2)C1', 'rule not met'),
  ('COP(=O)(CCC1CCN(C[C@H]2CN([C@H](CC3CC3)C(=O)O)C[C@@H]2c2cccc(F)c2)CC1)c1ccccc1 (some centres undefined)', 'rule not met'),
  ('O=C(O)[C@@H](CC1CCC1)N1C[C@H](CN2CCC(CCSc3ccc(F)cc3)CC2)[C@@H](c2cccc(F)c2)C1', 'rule met'),
  ('O=C(O)[C@@H](CC1CC1)N1C[C@H](CN2CCC(CCC3(c4ccc(F)cc4)OCCO3)CC2)[C@@H](c2cccc(F)c2)C1', 'rule not met');

These entries and their values trace back to ChEMBL document CHEMBL1136817.
